- target desc: T1, GST-KIAA1526 PDZ domain 1 (Homo sapiens (Human)), Q9P202
- T1 chain: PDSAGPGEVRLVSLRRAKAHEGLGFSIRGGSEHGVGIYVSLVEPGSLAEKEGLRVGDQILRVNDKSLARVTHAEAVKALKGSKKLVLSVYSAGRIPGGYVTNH
- assay explanation: G assay titration, PDZ 5 ug/ml
endpoint name: Kd (µM)
Your answer should be a plain number; it is taken to be in µM.

[Q] Dear colleague, I am looking for the recorded Kd of the following binder: ILNSIQVMRAQMNQIQSVEV (modifications not checked) [ephrin B2]
[A] 5

The origin of these recorded values is patent US20050282743A1.
